Molecular target: Insulin receptor (IR) (Homo sapiens, UniProt P06213-2;P06213-2 P06213-2:28-746,P06213-2:751-944)
Sequence (P06213 other isoform, or with tags, fused parts or gaps, chain 1 of 2): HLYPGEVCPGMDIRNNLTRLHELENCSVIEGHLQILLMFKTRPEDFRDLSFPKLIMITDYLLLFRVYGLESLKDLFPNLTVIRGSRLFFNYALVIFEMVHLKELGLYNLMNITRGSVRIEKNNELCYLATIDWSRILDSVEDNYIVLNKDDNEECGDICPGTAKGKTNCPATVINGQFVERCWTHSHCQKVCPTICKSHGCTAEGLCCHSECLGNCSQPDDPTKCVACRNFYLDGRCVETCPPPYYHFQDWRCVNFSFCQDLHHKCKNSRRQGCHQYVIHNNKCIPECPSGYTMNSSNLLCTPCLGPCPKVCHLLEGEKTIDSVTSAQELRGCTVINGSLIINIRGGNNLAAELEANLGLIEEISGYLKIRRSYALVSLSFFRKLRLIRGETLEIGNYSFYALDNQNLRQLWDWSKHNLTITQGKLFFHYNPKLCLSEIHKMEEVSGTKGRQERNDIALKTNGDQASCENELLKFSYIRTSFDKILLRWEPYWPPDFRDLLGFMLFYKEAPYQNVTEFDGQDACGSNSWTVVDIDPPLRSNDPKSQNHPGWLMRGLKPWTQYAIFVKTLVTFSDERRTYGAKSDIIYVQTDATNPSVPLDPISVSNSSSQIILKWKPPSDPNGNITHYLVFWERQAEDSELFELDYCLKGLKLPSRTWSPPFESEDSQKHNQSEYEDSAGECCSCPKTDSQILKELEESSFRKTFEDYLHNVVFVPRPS
Sequence (P06213 763-956, chain 2 of 2): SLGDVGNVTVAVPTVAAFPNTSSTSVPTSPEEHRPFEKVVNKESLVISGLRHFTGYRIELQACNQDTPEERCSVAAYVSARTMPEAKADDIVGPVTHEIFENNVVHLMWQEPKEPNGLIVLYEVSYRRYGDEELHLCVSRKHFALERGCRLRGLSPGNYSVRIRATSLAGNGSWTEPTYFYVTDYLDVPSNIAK
Test: filter; +/-0.78; same buffer, 5 mM MgCl2, 37 C
Conditions: tags: His-tagged; R&D Systems Cat# 1544-IR; chain copies: 2; label: 5'-32P
quantity.kind: Kd
Show the value, then the unit it is measured in.

Req: Give the measured Kd of IR-13 (ssDNA) DNA: GAGTGACCGTCTGCCTGTTATCCACTATGGCTTCTCATTCAAATAAGTGCGATCGATCAGCCACACCACCAGCC .
Resp: 4.83 nM
